Where do the numbers come from? From ChEMBL document CHEMBL1201862.

Tested on: HT-29
EXPERIMENTAL_DETAILS: NCI tumour cell line growth inhibition, 48 h
Active and inactive are the calls of the source. Cut-off read from the data, not from the text of the source: active = GI50 up to about 1.1 µM and inactive = higher.
REPORTED_METRIC: GI50

Examples with their reported GI50 follow.
> print(dat)
                                   compound      endpoint.result
1  CC(=O)OC1C(C)OC(OC2C[C@](O)(C(C)=O)Cc3c(O)c4c(c(O)c32)C(=O)c2ccccc2C4=O)C(F)C1OC(C)=O (some centres undefined)   1.42 µM (inactive)
2     N#Cc1c(C#N)c(-c2ccco2)n(-c2ccccc2)c1N  > 100 µM (inactive)
3         c1ccc(-c2cn3nc(N4CCOCC4)sc3n2)cc1  > 100 µM (inactive)
4  CCOC(=O)c1c(-c2ccccc2)oc(=O)c(Cc2cccc3cccnc23)c1-c1ccccc1   > 10 µM (inactive)
5  CCN(CC)CCCC(C)Nc1cc(-c2ccccc2)nc2cc(OC)ccc12 (centres undefined)   1.94 µM (inactive)
6  COc1cc(CC(C)C(C)Cc2ccc(O)c(OC)c2)ccc1O (centres undefined) [DIHYDROGUAIARETIC ACID]   22.5 µM (inactive)

For "O=c1[nH]nc(-c2ccccc2)n1/N=C/c1ccc([N+](=O)[O-])o1" , what is its reported GI50?
2.49 µM (inactive)

// next record N#CC1=C(N)N(c2ccccc2)C(c2ccccc2)C1(C#N)C#N (centres undefined)
15.7 µM (inactive)

// next record "Oc1c(OCc2nnc(CCCCCCCCc3nnc(COc4ccc5ccccc5c4O)n3Nc3ccccc3)n2Nc2ccccc2)ccc2ccccc12"
8.28 µM (inactive)

* * *

System: KM12
EXPERIMENTAL_DETAILS: NCI tumour cell line growth inhibition, 48 h
Calls of active or inactive are those of the source. Cut-off read from the data, not from the text of the source: active = GI50 up to about 1.1 µM and inactive = higher.
// allowed return values: active, inactive

COMPOUND	ANSWER_LABEL
COC1OC(=O)[C@H]2O[N+]([O-])=C(C)[C@@H]12 (stereo not given in full)	inactive

Short answer needed: outcome of this test for CC(OP(=O)(O)O)C(N)C(=O)O (stereo not given) ?
inactive

// next record "Cc1nc2c(nc1C)-c1c(c3c(n1C)C(=O)CCC3)C(=O)C2=O"
inactive

// next record "COc1cc(OC)c(/C=C\c2ccnc3ccccc23)c(OC)c1"
active

// next record "Nc1nc(Nc2ccc(Cl)cc2)sc1C(=O)c1cccs1"
inactive

// next record "Clc1c(Cl)c2c(Cl)c(Cl)c1C[PH](c1ccccc1)(c1ccccc1)CC[PH](c1ccccc1)(c1ccccc1)Cc1c(Cl)c(Cl)c(c(Cl)c1Cl)C[PH](c1ccccc1)(c1ccccc1)CC[PH](c1ccccc1)(c1ccccc1)C2"
inactive

// next record CCOC(=O)CN1C(=O)NC(C)(c2ccccc2)C1=O (stereo not given)
inactive

// next record "Oc1c(OCc2nnc(CCCCCCCCc3nnc(COc4ccc5ccccc5c4O)n3Nc3ccccc3)n2Nc2ccccc2)ccc2ccccc12"
inactive

// next record C=C(C)CCC1CCCCC(CN(C)C)C1=O (stereo not given)
inactive

// next record Cn1c(=O)c2c(nc(N3CCOCC3)n2CCCNCC(O)c2ccc(O)c(O)c2)n(C)c1=O (stereo not given)
inactive

// next record "CC(=O)NNc1nc(C)c(C(=O)NNC(=O)C(=O)Nc2c(Cl)cc([N+](=O)[O-])cc2Cl)s1"
inactive

// next record "CCOC(=O)c1c(NC(=O)c2ccccc2)sc2c1CCC2"
inactive

// next record CC(=O)NC1C(OCc2ccccc2)OC(CO)C(O)C1OC(C)C(=O)NC(C(=O)NC(CCC(=O)NCCCC(=O)Nc1ccc2c(c1)CN1C(=O)c3ccccc3C1=N2)C(N)=O)C(C)C (stereo not given)
inactive

// next record OCC1OC(n2ccc3cnccc32)CC1O (stereo not given)
inactive

// next record "C=CCc1cc(OC)c(O)c(C(=O)/C=C/c2ccc(OC)c(OC)c2)c1"
inactive
